- TESTED_TARGET: human LPA1 (Homo sapiens, UniProt Q92633)
- Construct: the full-length cDNA for human LPA1 was obtained by PCR of the reverse transcription reaction
- Sequence (Q92633 whole entry): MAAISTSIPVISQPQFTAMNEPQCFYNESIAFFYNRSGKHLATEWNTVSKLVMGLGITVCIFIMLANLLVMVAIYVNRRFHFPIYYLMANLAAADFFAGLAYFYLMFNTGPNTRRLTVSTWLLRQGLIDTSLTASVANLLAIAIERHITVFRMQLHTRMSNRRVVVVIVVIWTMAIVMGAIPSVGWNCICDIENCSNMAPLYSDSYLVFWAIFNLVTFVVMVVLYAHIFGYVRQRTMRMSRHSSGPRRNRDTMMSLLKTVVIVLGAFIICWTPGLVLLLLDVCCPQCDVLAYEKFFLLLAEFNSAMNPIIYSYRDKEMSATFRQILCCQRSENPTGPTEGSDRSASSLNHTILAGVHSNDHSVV
- TEST_SUMMARY: HLPA1 Ca Flux assay (LPA1 calcium flux assay)
- TEST_CONDITIONS: CHO cells stably expressing human LPA1; stimulated by 10 nM LPA; intracellular Ca2+
pIC50: −log10 of the molar value.
METRIC: pIC50

Before answering, review these 3 worked examples.
{"COMPOUND": "Cc1noc(-c2ccc(C#CCCCCC(=O)O)cc2)c1NC(=O)OC(C)c1ccccc1Cl (stereo not shown) [Compound 1-3]", "TESTED_TARGET": "human LPA1 (Homo sapiens, UniProt Q92633)", "pIC50": "> 6.52"}
{"COMPOUND": "Cc1noc(-c2ccc(C#CCC(C)(C)C(=O)O)cc2)c1NC(=O)OC(C)c1ccccc1Cl (stereo not shown) [Compound 1-4]", "TESTED_TARGET": "human LPA1 (Homo sapiens, UniProt Q92633)", "pIC50": "> 6.52"}
{"COMPOUND": "Cc1noc(-c2ccc(C#CCCC(=O)O)cc2)c1NC(=O)OC(C)c1ccccc1Cl (stereo not shown) [Compound 1-1]", "TESTED_TARGET": "human LPA1 (Homo sapiens, UniProt Q92633)", "pIC50": "> 6.52"}

Field: next compound
Problem: Provide value of pIC50 for this record tested with human LPA1 (Homo sapiens, UniProt Q92633): Cc1noc(-c2ccc(C#CCn3cc(C(=O)O)cn3)cc2)c1NC(=O)OC(C)c1ccccc1Cl (stereo not shown) [Compound 2-2]
Solution: 6.00 to 6.52
